# ASSAYED SYSTEM: β-catenin/Tcf protein-protein interaction (Homo sapiens)
# Construct: Wild-type β-catenin (residues 138-781) were cloned into a pET-28b vector; 6×histidine (C); made in house; host or cells: E. coli BL21 DE3
# Sequence (P35222 138-781): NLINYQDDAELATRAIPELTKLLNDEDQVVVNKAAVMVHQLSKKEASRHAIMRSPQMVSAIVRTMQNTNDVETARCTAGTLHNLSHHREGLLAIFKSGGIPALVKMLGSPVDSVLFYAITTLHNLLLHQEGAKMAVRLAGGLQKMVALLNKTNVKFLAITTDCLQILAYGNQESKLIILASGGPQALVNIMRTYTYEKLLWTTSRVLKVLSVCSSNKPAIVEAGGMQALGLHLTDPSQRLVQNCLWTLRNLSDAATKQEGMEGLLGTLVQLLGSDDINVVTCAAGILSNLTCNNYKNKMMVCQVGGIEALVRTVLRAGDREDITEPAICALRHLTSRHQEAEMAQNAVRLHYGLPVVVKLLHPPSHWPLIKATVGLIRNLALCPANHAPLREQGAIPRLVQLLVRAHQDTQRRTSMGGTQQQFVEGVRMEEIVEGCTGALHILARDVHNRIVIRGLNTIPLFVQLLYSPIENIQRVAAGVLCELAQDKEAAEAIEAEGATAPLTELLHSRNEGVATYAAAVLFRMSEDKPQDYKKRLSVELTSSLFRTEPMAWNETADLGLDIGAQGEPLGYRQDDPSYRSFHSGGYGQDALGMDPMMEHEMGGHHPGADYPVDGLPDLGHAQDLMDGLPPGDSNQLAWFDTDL
# ASSAY: FP competitive inhibition assay
# Format: binding
# APPLIED CONDITIONS: Assay 1, mean ± SD (n = 3), read-out: Ki ± SD, Assay 1
OBSERVATION TYPE: pKi
Please express pKi as -log10 of the molar concentration.

Some molecules with recorded pKi:
{"columns": ["SUBSTANCE SMILES", "OBSERVATION TYPE", "NUMERIC VALUE"],
 "data": [
  ["O=C(O)c1ccc2c(c1)c(CCc1ccc(C(F)(F)F)cc1)cn2CCc1nn[nH]n1", "pKi", 4.51],
  ["Cc1ccc(CCc2c(-c3csc(C(F)F)c3)n(CCc3nn[nH]n3)c3ccc(C(=O)NCc4ccon4)cc23)cc1", "pKi", 5.57],
  ["O=C(O)c1ccc2c(c1)c(CCC1CCCCC1)c(-c1ccsc1)n2CCc1nn[nH]n1", "pKi", 6.09],
  ["Cc1ccc(CCc2c(-c3csc4ccccc34)n(CCc3nn[nH]n3)c3ccc(C(=O)O)cc23)cc1", "pKi", 6.24],
  ["O=C(O)c1ccc2c(c1)c(CCc1ccc(Cl)cc1)c(CCc1nc3ccccc3[nH]1)n2CCc1nn[nH]n1", "pKi", 4.96]
]}

Here is another molecule to look at.
So what does the record say about pKi for `O=C(O)c1ccc2c(ccn2CCc2nn[nH]n2)c1` ?
3.26
